Tested on: HIV-1 (IIIB strain)
method-summary: MT-4 antiviral cytoprotection assay, five-day multi-cycle, wild type HIV-1
Type: cell-based
measurement-setup: wild type, MT-4 cells
outcome-measure: anti-HIV activity in words

Worked cases, anti-HIV activity in words given:
>  <compound>
COc1cc(F)c(C(=O)c2cc(N)nc(Nc3ccc(C#N)cc3)n2)c(F)c1 [Compound 13]

>  <outcome-measure>
anti-HIV activity in words

>  <reported-measurement>
low nanomolar activities

$$$$
>  <compound>
COc1cc(F)c(C(=O)c2nc(N)cc(Nc3ccc(C#N)cc3)n2)c(F)c1 [Compound 11]

>  <outcome-measure>
anti-HIV activity in words

>  <reported-measurement>
micromolar range

$$$$
>  <compound>
N#Cc1ccc(Nc2nc(N)cc(C(=O)c3c(F)cc(F)cc3F)n2)cc1 [Compound 14]

>  <outcome-measure>
anti-HIV activity in words

>  <reported-measurement>
low nanomolar activities

$$$$
>  <compound>
N#Cc1ccc(Nc2cc(N)nc(C(=O)c3c(F)cc(F)cc3F)n2)cc1 [Compound 12]

>  <outcome-measure>
anti-HIV activity in words

>  <reported-measurement>
micromolar range

$$$$

Exercise: // query anti-HIV activity in words value for entry N#Cc1ccc(Nc2cc(C(=O)c3c(F)cc(F)cc3F)nc(N)n2)cc1 [Compound 16]
Key: micromolar range
